Values from the array DNA melting data of Ke et al. (doi:10.1101/2024.01.08.574731)

test: folding enthalpy; higher = less favourable; fluorescence melt of hairpins on a sequencing array, two-state fit; conditions: sodium 0.088 M
Classification field: Criterion met = folding enthalpy at or over -30 kcal/mol; Criterion not met = folding enthalpy under -30 kcal/mol.

Input: Please indicate if the recorded folding enthalpy for GCTTAAGAAATTAAGC ((((((....)))))) meets or exceeds -30 kcal/mol.
Output: Criterion met

Input: Determine whether this sequence has folding enthalpy no lower than -30 kcal/mol: GATCAAACTTTGATC ((((((...))))))
Output: Criterion not met

Input: Identify whether the reported folding enthalpy of the following sequence is -30 kcal/mol or greater: GGTGACGAAAGTCGAACC ((((((....)))..)))
Output: Criterion met

Input: Say whether GATCTAGCCTAGATC ((((((...)))))) shows folding enthalpy of -30 kcal/mol or more.
Output: Criterion met

Input: Item GTCCCTGGAAACAAGGAC ((((.((....)).)))) with folding enthalpy of -30 kcal/mol or above?
Output: Criterion met

Input: Decide: folding enthalpy of GATTCGGGAAACTGAATC (((((.(....).))))) >= -30 kcal/mol?
Output: Criterion not met

Input: Tell me whether folding enthalpy is at least -30 kcal/mol here: GCGGTTTCCCGC ((((....))))
Output: Criterion met

Input: Dear colleague, could you confirm whether GCTTAGCGAAAGCATAGC (((..((....))..))) has folding enthalpy at or above -30 kcal/mol?
Output: Criterion met

Input: Is it the case that GGTGCGGGAAACCGCATC (.(((((....))))).) has folding enthalpy reaching or exceeding -30 kcal/mol?
Output: Criterion met

Input: Answer whether folding enthalpy of GGCTCCCGAAAGGGCGCC (((.(((....))).))) is greater than or equal to -30 kcal/mol.
Output: Criterion not met

Input: Answer whether folding enthalpy of GAGTTAGAAATAACTC ((((((....)))))) is greater than or equal to -30 kcal/mol.
Output: Criterion not met

====

assay: melting temperature; fluorescence melt of hairpins on a sequencing array, two-state fit, raised by 9.35 °C to match UV melts; conditions: sodium 0.088 M
Hi there, I'd appreciate the recorded Tm for every entry that follows.
Reply with just the number (in °C).

Input: Could you tell me which Tm is on file for GACGGGGGAAACCTCGTC ((((.((....)).)))) ?
Output: 55.1

Input: Fill in: Tm of GATCCCGAAAGGGCGATC ((((((....)))..))) is ___
Output: 31.9

Input: Which Tm reading was recorded for the sequence CGAATCGGAAACGAGTCG (((.(((....))).))) ?
Output: 51.3

Input: Reported Tm for GGTTCGGGAAACCGAGCC ((.((((....)))).)) : what is it?
Output: 58.3

Input: # Tm lookup, item GAGAACGAAAGTTGCTC ((((((....))).)))
Output: 33.6

Input: What Tm value was documented for this sequence, GATCGAGGGATCGATC ((((((....)))))) ?
Output: 53.4

Input: // Tm lookup, key: GATCGTACGCACGATC ((((((....))))))
Output: 55.1

Input: I am curious: what Tm value has been reported for GTGGGAGGAAACTCCCAC (((((((....))))))) ?
Output: 67.2

Input: For the sequence GATCCGATACCGGATC ((((((....)))))) , what Tm is on record?
Output: 57

Input: Look up Tm: GTTGACACGAAAGTGAAC (((..(((....))))))
Output: 34.1

Input: So what does the record say about Tm for GCGATTGCTCGC ((((....)))) ?
Output: 52.5

Input: Data request, read-out Tm, for GCTTTGCGAAAGCGTAGC (((..((....))..)))
Output: 37.2
